- TARGET_OR_SYSTEM: C-X-C chemokine receptor type 6 (Homo sapiens) (UniProt O00574)
- Sequence (O00574 whole entry, looked up): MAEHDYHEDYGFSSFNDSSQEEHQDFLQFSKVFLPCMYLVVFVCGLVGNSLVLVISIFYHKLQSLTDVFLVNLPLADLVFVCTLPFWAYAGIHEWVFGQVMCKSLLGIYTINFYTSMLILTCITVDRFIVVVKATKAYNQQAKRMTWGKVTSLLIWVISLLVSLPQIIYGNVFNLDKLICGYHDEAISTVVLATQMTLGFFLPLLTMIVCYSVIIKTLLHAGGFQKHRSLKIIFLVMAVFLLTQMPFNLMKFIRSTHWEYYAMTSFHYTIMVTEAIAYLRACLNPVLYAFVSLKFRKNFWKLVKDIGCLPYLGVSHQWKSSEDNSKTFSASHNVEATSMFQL
- PROTOCOL: potency against CXCR6 with APJ panel – cell-based, beta-arrestin, DiscoveRx, uHTS hits, dose response (AID 624129)
- CONDITION_PARAMETERS: CXCR6 beta-arrestin (DiscoveRx) antagonist cell assay, CXCR6, run 1, dose range 2, at 80 µM (top of the series)
The entries below are paired with their reported inhibition.
EXPERIMENTAL_ENDPOINT: inhibition

COMPOUND: CS(=O)(=O)c1ncc(Cl)c(C(=O)Nc2ccc3ccccc3c2)n1
TARGET_OR_SYSTEM: C-X-C chemokine receptor type 6 (Homo sapiens) (UniProt O00574)
EXPERIMENTAL_ENDPOINT: inhibition
REPORTED_RESULT: 47.9%

COMPOUND: Cc1[nH][nH]c(=O)c1C(c1c(C)[nH][nH]c1=O)c1cn(Cc2ccc(F)cc2)c2ccccc12
TARGET_OR_SYSTEM: C-X-C chemokine receptor type 6 (Homo sapiens) (UniProt O00574)
EXPERIMENTAL_ENDPOINT: inhibition
REPORTED_RESULT: 97.7%

COMPOUND: CCCC1CCC(=NNC(=S)NCCc2ccccc2)CC1 (stereo unspecified)
TARGET_OR_SYSTEM: C-X-C chemokine receptor type 6 (Homo sapiens) (UniProt O00574)
EXPERIMENTAL_ENDPOINT: inhibition
REPORTED_RESULT: -19%

COMPOUND: Cc1ccc(C(=O)/C=C/C(=O)c2ccc(C)cc2)cc1
TARGET_OR_SYSTEM: C-X-C chemokine receptor type 6 (Homo sapiens) (UniProt O00574)
EXPERIMENTAL_ENDPOINT: inhibition
REPORTED_RESULT: 19.4%

COMPOUND: Cc1ccc(OCCn2c(NC(=O)c3ccco3)nc3ccccc32)cc1
TARGET_OR_SYSTEM: C-X-C chemokine receptor type 6 (Homo sapiens) (UniProt O00574)
EXPERIMENTAL_ENDPOINT: inhibition
REPORTED_RESULT: 146%

COMPOUND: Cn1c(=O)c([N+](=O)[O-])c(Cl)c2ccccc21
TARGET_OR_SYSTEM: C-X-C chemokine receptor type 6 (Homo sapiens) (UniProt O00574)
EXPERIMENTAL_ENDPOINT: inhibition
REPORTED_RESULT: 116%

Reference source for all entries: PubChem BioAssay AID624129
